Each recorded value in this set is attributed to ChEMBL document CHEMBL1799998.

# System: Radical scavenging activity
# Measurement protocol: Antioxidant activity against DPPH free radical assessed as compound able to consume half the initial amount of DPPH free radical after 30 to 60 mins by spectrophotometry
# Format: functional
Kindly supply the reported IC50 values for the records listed here.
In your response, the unit should come after the numeric value.

Would you please look over these solved cases?
CC1=NC(=S)N(n2c(CCl)nc3ccccc3c2=O)C(=O)C1/N=N/c1ccc(C)cc1O (stereo not given) : 5.1 µM
COc1ccc(/N=N/C2C(=O)N(n3c(CCl)nc4ccccc4c3=O)C(=S)N=C2C)cc1O (stereo not given) : 3 µM
CC1=NC(=S)N(n2c(CCl)nc3ccccc3c2=O)C(=O)C1/N=N/c1ccc(O)c(O)c1 (stereo not given) : 1.4 µM
CC1=NC(=S)N(n2c(CCl)nc3ccccc3c2=O)C(=O)C1/N=N/c1ccc(O)c([N+](=O)[O-])c1 (stereo not given) : 8.6 µM
CC1=NC(=S)N(n2c(CCl)nc3ccccc3c2=O)C(=O)C1/N=N/c1cccc(C)c1O (stereo not given) : 3.5 µM
CC1=NC(=S)N(n2c(CCl)nc3ccccc3c2=O)C(=O)C1/N=N/c1ccc(O)cc1 (stereo not given) : 5.4 µM
O=C1O[C@H]([C@@H](O)CO)C(O)=C1O : 9.2 µM
CC1=NC(=S)N(n2c(CCl)nc3ccccc3c2=O)C(=O)C1/N=N/c1ccc(Cl)cc1O (stereo not given) : 7 µM

Provide each entry's IC50 from the list below.
1. CC1=NC(=S)N(n2c(CCl)nc3ccccc3c2=O)C(=O)C1/N=N/c1ccc(O)cc1O (stereo not given)
2. CC1=NC(=S)N(n2c(CCl)nc3ccccc3c2=O)C(=O)C1/N=N/c1cccc(Cl)c1O (stereo not given)

Result:
1: 2.1 µM; 2: 8.3 µM
